Here the recorded Tumour/Heart, mean is given for each entry.
# System: Lewis lung carcinoma (LLC) tumour
# Assay details: Biodistribution in LLC tumour model in vivo
# Design: species or system C57BL/6 mice
# Recorded conditions: 60 min post injection
Readout: Tumour/Heart, mean

{"Compound": "NC(=O)[C@H](Cc1ccc(O)c([123I])c1)NC(=O)COCC(=O)NCCOCCOCCOCCNC(=O)[C@H](CCC(=O)O)NC(=O)[C@H](CCC(=O)O)NC(=O)[C@H](CCC(=O)O)NC(=O)[C@H](CCC(=O)O)NC(=O)[C@H](CCC(=O)O)NC(=O)CCN(C1(C(=O)NO)CCCC1)S(=O)(=O)c1ccc(Oc2ccc(F)cc2)cc1 [Compound 38A]", "Reported result": 1.25}
{"Compound": "NC(=O)[C@H](CCCCNC(=O)CON=Cc1ccc([18F])cc1)NC(=O)CCOCCOCCOCCOCCOCCOCCOCCOCCOCCOCCOCCNC(=O)CCOCCOCCOCCOCCOCCOCCOCCOCCOCCOCCOCCNC(=O)CCN(C1(C(=O)NO)CCCC1)S(=O)(=O)c1ccc(Oc2ccc(F)cc2)cc1 [Compound 48B]", "Reported result": 1.69}
{"Compound": "NCCCC[C@H](NC(=O)CCN(C1(C(=O)NO)CCCC1)S(=O)(=O)c1ccc(Oc2ccc(F)cc2)cc1)C(=O)N[C@@H](CCCCN)C(=O)N[C@@H](CCCCN)C(=O)N[C@@H](CCCCN)C(=O)N[C@@H](CCCCN)C(=O)NCCOCCOCCOCCNC(=O)COCC(=O)N[C@@H](Cc1ccc(O)c([123I])c1)C(N)=O [Compound 42A]", "Reported result": 1.49}
{"Compound": "NC(=O)[C@H](CCCCNC(=O)CON=Cc1ccc([18F])cc1)NC(=O)CCN(C1(C(=O)NO)CCCC1)S(=O)(=O)c1ccc(Oc2ccc(F)cc2)cc1 [Compound 46B]", "Reported result": 1.54}

---

# System: Lewis lung carcinoma (LLC) tumour
# Assay details: Biodistribution in LLC tumour model in vivo
# Design: species or system C57BL/6 mice
# Recorded conditions: 5 min post injection
Binarize % ID/g Tumour, mean at 2 % ID/g; below is 1 (yes), at or above is 0 (no).

{"Molecule": "NC(=O)[C@H](Cc1ccc(O)c([123I])c1)NC(=O)COCC(=O)NCCOCCOCCOCCNC(=O)[C@H](CCC(=O)O)NC(=O)[C@H](CCC(=O)O)NC(=O)[C@H](CCC(=O)O)NC(=O)[C@H](CCC(=O)O)NC(=O)[C@H](CCC(=O)O)NC(=O)CCN(C1(C(=O)NO)CCCC1)S(=O)(=O)c1ccc(Oc2ccc(F)cc2)cc1 [Compound 38A]", "Qualitative label": "0 (no)"}
{"Molecule": "NC(=O)[C@H](CCCCNC(=O)CON=Cc1ccc([18F])cc1)NC(=O)CCN(C1(C(=O)NO)CCCC1)S(=O)(=O)c1ccc(Oc2ccc(F)cc2)cc1 [Compound 46B]", "Qualitative label": "1 (yes)"}
{"Molecule": "NC(=O)[C@H](Cc1ccc(O)c([123I])c1)NC(=O)CCOCCOCCOCCOCCOCCOCCOCCOCCOCCOCCOCCNC(=O)CCN(C1(C(=O)NO)CCCC1)S(=O)(=O)c1ccc(Oc2ccc(F)cc2)cc1 [Compound 44A]", "Qualitative label": "1 (yes)"}
{"Molecule": "NC(=O)[C@H](CCCCNC(=O)CON=Cc1ccc([18F])cc1)NC(=O)CCOCCOCCOCCOCCOCCOCCOCCOCCOCCOCCOCCNC(=O)CCOCCOCCOCCOCCOCCOCCOCCOCCOCCOCCOCCNC(=O)CCN(C1(C(=O)NO)CCCC1)S(=O)(=O)c1ccc(Oc2ccc(F)cc2)cc1 [Compound 48B]", "Qualitative label": "0 (no)"}
{"Molecule": "NC(=O)[C@H](Cc1ccc(O)c([123I])c1)NC(=O)CCOCCOCCOCCOCCOCCOCCOCCOCCOCCOCCOCCNC(=O)CCOCCOCCOCCOCCOCCOCCOCCOCCOCCOCCOCCNC(=O)CCN(C1(C(=O)NO)CCCC1)S(=O)(=O)c1ccc(Oc2ccc(F)cc2)cc1 [Compound 32A]", "Qualitative label": "0 (no)"}
{"Molecule": "O=C(CCN(C1(C(=O)NO)CCCC1)S(=O)(=O)c1ccc(Oc2ccc(F)cc2)cc1)NCCc1ccc(O)c([123I])c1 [Compound 24A]", "Qualitative label": "1 (yes)"}
{"Molecule": "NC(=O)[C@H](Cc1ccc(O)c([123I])c1)NC(=O)[C@H](CCC(=O)O)NC(=O)[C@H](CCC(=O)O)NC(=O)[C@H](CCC(=O)O)NC(=O)[C@H](CCC(=O)O)NC(=O)[C@H](CCC(=O)O)NC(=O)CCN(C1(C(=O)NO)CCCC1)S(=O)(=O)c1ccc(Oc2ccc(F)cc2)cc1 [Compound 21A]", "Qualitative label": "1 (yes)"}
{"Molecule": "NCCCC[C@H](NC(=O)CCN(C1(C(=O)NO)CCCC1)S(=O)(=O)c1ccc(Oc2ccc(F)cc2)cc1)C(=O)N[C@@H](CCCCN)C(=O)N[C@@H](CCCCN)C(=O)N[C@@H](CCCCN)C(=O)N[C@@H](CCCCN)C(=O)NCCOCCOCCOCCNC(=O)COCC(=O)N[C@@H](Cc1ccc(O)c([123I])c1)C(N)=O [Compound 42A]", "Qualitative label": "0 (no)"}

---

# Tested on: Lewis lung carcinoma (LLC) tumour
# Assay details: Biodistribution in LLC tumour model in vivo
# Design: species or system C57BL/6 mice
# Recorded conditions: 30 min post injection
We begin with a simple list: items and their reported Tumour/Heart, mean.
Readout: Tumour/Heart, mean

{"Compound": "NC(=O)[C@H](Cc1ccc(O)c([123I])c1)NC(=O)CCOCCOCCOCCOCCOCCOCCOCCOCCOCCOCCOCCNC(=O)CCOCCOCCOCCOCCOCCOCCOCCOCCOCCOCCOCCNC(=O)CCN(C1(C(=O)NO)CCCC1)S(=O)(=O)c1ccc(Oc2ccc(F)cc2)cc1 [Compound 32A]", "Readout": "Tumour/Heart, mean", "Reported result": 0.75}
{"Compound": "NC(=O)[C@H](Cc1ccc(O)c([123I])c1)NC(=O)COCC(=O)NCCOCCOCCOCCNC(=O)[C@H](CCC(=O)O)NC(=O)[C@H](CCC(=O)O)NC(=O)[C@H](CCC(=O)O)NC(=O)[C@H](CCC(=O)O)NC(=O)[C@H](CCC(=O)O)NC(=O)CCN(C1(C(=O)NO)CCCC1)S(=O)(=O)c1ccc(Oc2ccc(F)cc2)cc1 [Compound 38A]", "Readout": "Tumour/Heart, mean", "Reported result": 0.90}
{"Compound": "NC(=O)[C@H](CCCCNC(=O)CON=Cc1ccc([18F])cc1)NC(=O)CCN(C1(C(=O)NO)CCCC1)S(=O)(=O)c1ccc(Oc2ccc(F)cc2)cc1 [Compound 46B]", "Readout": "Tumour/Heart, mean", "Reported result": 1.15}
{"Compound": "O=C(CCN(C1(C(=O)NO)CCCC1)S(=O)(=O)c1ccc(Oc2ccc(F)cc2)cc1)NCCc1ccc(O)c([123I])c1 [Compound 24A]", "Readout": "Tumour/Heart, mean", "Reported result": 0.57}
{"Compound": "NC(=O)[C@H](CCCCNC(=O)CON=Cc1ccc([18F])cc1)NC(=O)CCOCCOCCOCCOCCOCCOCCOCCOCCOCCOCCOCCNC(=O)CCOCCOCCOCCOCCOCCOCCOCCOCCOCCOCCOCCNC(=O)CCN(C1(C(=O)NO)CCCC1)S(=O)(=O)c1ccc(Oc2ccc(F)cc2)cc1 [Compound 48B]", "Readout": "Tumour/Heart, mean", "Reported result": 0.84}
{"Compound": "NC(=O)[C@H](Cc1ccc(O)c([123I])c1)NC(=O)CCOCCOCCOCCOCCOCCOCCOCCOCCOCCOCCOCCNC(=O)CCN(C1(C(=O)NO)CCCC1)S(=O)(=O)c1ccc(Oc2ccc(F)cc2)cc1 [Compound 44A]", "Readout": "Tumour/Heart, mean", "Reported result": 0.870}

---

# System: Lewis lung carcinoma (LLC) tumour
# Assay details: Biodistribution in LLC tumour model in vivo
# Set-up: species or system C57BL/6 mice
# Recorded conditions: 30 min post injection
Catalogue of Tumour/Lung, mean readings, one per entry.

{"Compound": "NCCCC[C@H](NC(=O)CCN(C1(C(=O)NO)CCCC1)S(=O)(=O)c1ccc(Oc2ccc(F)cc2)cc1)C(=O)N[C@@H](CCCCN)C(=O)N[C@@H](CCCCN)C(=O)N[C@@H](CCCCN)C(=O)N[C@@H](CCCCN)C(=O)NCCOCCOCCOCCNC(=O)COCC(=O)N[C@@H](Cc1ccc(O)c([123I])c1)C(N)=O [Compound 42A]", "Tgt": "Lewis lung carcinoma (LLC) tumour", "Tumour/Lung, mean": 0.57}
{"Compound": "NC(=O)[C@H](Cc1ccc(O)c([123I])c1)NC(=O)CCOCCOCCOCCOCCOCCOCCOCCOCCOCCOCCOCCNC(=O)CCOCCOCCOCCOCCOCCOCCOCCOCCOCCOCCOCCNC(=O)CCN(C1(C(=O)NO)CCCC1)S(=O)(=O)c1ccc(Oc2ccc(F)cc2)cc1 [Compound 32A]", "Tgt": "Lewis lung carcinoma (LLC) tumour", "Tumour/Lung, mean": 0.43}
{"Compound": "NC(=O)[C@H](Cc1ccc(O)c([123I])c1)NC(=O)COCC(=O)NCCOCCOCCOCCNC(=O)[C@H](CCC(=O)O)NC(=O)[C@H](CCC(=O)O)NC(=O)[C@H](CCC(=O)O)NC(=O)[C@H](CCC(=O)O)NC(=O)[C@H](CCC(=O)O)NC(=O)CCN(C1(C(=O)NO)CCCC1)S(=O)(=O)c1ccc(Oc2ccc(F)cc2)cc1 [Compound 38A]", "Tgt": "Lewis lung carcinoma (LLC) tumour", "Tumour/Lung, mean": 0.73}
{"Compound": "NC(=O)[C@H](Cc1ccc(O)c([123I])c1)NC(=O)[C@H](CCC(=O)O)NC(=O)[C@H](CCC(=O)O)NC(=O)[C@H](CCC(=O)O)NC(=O)[C@H](CCC(=O)O)NC(=O)[C@H](CCC(=O)O)NC(=O)CCN(C1(C(=O)NO)CCCC1)S(=O)(=O)c1ccc(Oc2ccc(F)cc2)cc1 [Compound 21A]", "Tgt": "Lewis lung carcinoma (LLC) tumour", "Tumour/Lung, mean": 0.65}
{"Compound": "NC(=O)[C@H](CCCCNC(=O)CON=Cc1ccc([18F])cc1)NC(=O)CCN(C1(C(=O)NO)CCCC1)S(=O)(=O)c1ccc(Oc2ccc(F)cc2)cc1 [Compound 46B]", "Tgt": "Lewis lung carcinoma (LLC) tumour", "Tumour/Lung, mean": 0.55}
{"Compound": "O=C(CCN(C1(C(=O)NO)CCCC1)S(=O)(=O)c1ccc(Oc2ccc(F)cc2)cc1)NCCc1ccc(O)c([123I])c1 [Compound 24A]", "Tgt": "Lewis lung carcinoma (LLC) tumour", "Tumour/Lung, mean": 0.39}
{"Compound": "NC(=O)[C@H](CCCCNC(=O)CON=Cc1ccc([18F])cc1)NC(=O)CCOCCOCCOCCOCCOCCOCCOCCOCCOCCOCCOCCNC(=O)CCOCCOCCOCCOCCOCCOCCOCCOCCOCCOCCOCCNC(=O)CCN(C1(C(=O)NO)CCCC1)S(=O)(=O)c1ccc(Oc2ccc(F)cc2)cc1 [Compound 48B]", "Tgt": "Lewis lung carcinoma (LLC) tumour", "Tumour/Lung, mean": 0.47}
{"Compound": "NC(=O)[C@H](Cc1ccc(O)c([123I])c1)NC(=O)CCOCCOCCOCCOCCOCCOCCOCCOCCOCCOCCOCCNC(=O)CCN(C1(C(=O)NO)CCCC1)S(=O)(=O)c1ccc(Oc2ccc(F)cc2)cc1 [Compound 44A]", "Tgt": "Lewis lung carcinoma (LLC) tumour", "Tumour/Lung, mean": 0.54}
